experiment: qHTS for differential inhibitors of proliferation of Plasmodium falciparum line Dd2 (AID 1882); conditions: Plasmodium falciparum Dd2 proliferation inhibition; series mostly up to 28.7 µM; note: nearly all actives have a fitted effect of over 65% in size
Records with an inconclusive call do not appear. Activity calls are given as the source filed them. Calls come from the whole dose curve; as a rule, active = well fitted inhibition curve with a large enough effect; inconclusive = small, poorly fitted or top-dose-only effect; inactive = flat fitted curve, though single readings scatter.
Hello, when you answer, please use one of the following outcomes: class 1 = active, class 0 = inactive

Task: So what was the verdict on O=c1c(O)c(-c2ccc(O)cc2O)oc2cc(O)cc(O)c12 in this test?
Result: class 0

Task: So what was the verdict on CC(C)c1ccc2c(c1)c(SC(C)(C)C)c(CC(C)(C)C(=O)O)n2Cc1ccc(Cl)cc1 in this test?
Result: class 1

Task: So what was the verdict on O=C(c1ccccc1)c1ccc2n1CCC2C(=O)O (configuration not stated) in this test?
Result: class 0

Task: So what was the verdict on Nc1nc(OCc2ccccc2)c2[nH]cnc2n1 in this test?
Result: class 0

Task: So what was the verdict on C[C@@H](N)C1CCC(C(=O)Nc2ccncc2)CC1 (some centres not stated) in this test?
Result: class 0

Task: So what was the verdict on O=c1c(O)c(-c2cc(O)c(O)c(O)c2)oc2cc(O)cc(O)c12 in this test?
Result: class 1

Task: So what was the verdict on Oc1ccc(-c2nc(-c3ccc(F)cc3)c(-c3ccncc3)[nH]2)cc1 in this test?
Result: class 1

Task: So what was the verdict on COc1ccc2cc([C@H](C)C(=O)O)ccc2c1 in this test?
Result: class 0

Task: So what was the verdict on COc1cc2nc(N3CCN(C(=O)C4CCCO4)CC3)nc(N)c2cc1OC (configuration not stated) in this test?
Result: class 0

Task: So what was the verdict on CC1(C)NC(=O)N(c2ccc([N+](=O)[O-])c(C(F)(F)F)c2)C1=O in this test?
Result: class 0

Task: So what was the verdict on NCCCCNCCCN in this test?
Result: class 0

Task: So what was the verdict on O=Nc1c(-c2c(O)[nH]c3cc(Br)ccc23)[nH]c2ccccc12 in this test?
Result: class 1

###

assay: Quantitative High-Throughput drug screen in 47 multiple myeloma cell lines against the NCATS MIPE library collection: KMS28BM_JCRB cell viability assay (AID 1919874); conditions: CellTiter-Glo ATP, 48 h; series mostly up to 45.8 µM; note: nearly all actives have a fitted effect of over 35% in size; note: potency is the fitted concentration of half-maximal effect
Records with an inconclusive call do not appear. Calls of active or inactive are those of the source. Calls come from the whole dose curve; as a rule, active = well fitted cell-killing curve with a large enough effect; inconclusive = small, poorly fitted or top-dose-only effect, or effect the other way; inactive = no such curve, though single readings can be large or run the other way.
measurement.type: Potency

Worked examples, 5 compounds total:
COc1ccc2cc([C@H](C)C(=O)O)ccc2c1 ... inactive
Cc1ccc(C(=O)c2cc(O)c(O)c([N+](=O)[O-])c2)cc1 ... inactive
CCN(CCO)CCCC(C)Nc1ccnc2cc(Cl)ccc12 (centres undefined) ... inactive
NNc1nncc2ccccc12 ... inactive
Cc1ccc(S(=O)(=O)NC(=O)NN2CC3CCCC3C2)cc1 (centres undefined) ... 18.7 µM (active)

The compound CC1=C(C(=O)O)N2C(=O)[C@@H](NC(=O)[C@H](N)C3=CCC=CC3)[C@H]2SC1 showed Potency equal to inactive

The compound C=C(c1ccc(C(=O)O)cc1)c1cc2c(cc1C)C(C)(C)CCC2(C)C showed Potency equal to inactive

The compound NC(=O)Cc1cccc(C(=O)c2ccccc2)c1N showed Potency equal to inactive

The compound Cc1nc2n(c(=O)c1CCN1CCC(c3noc4cc(F)ccc34)CC1)CCCC2 showed Potency equal to inactive

The compound Cc1nccn1CC1CCc2c(c3ccccc3n2C)C1=O (centres undefined) showed Potency equal to 2.64 µM (active)
